Listed here are compounds together with their documented GI50.
Tested on: HCT-15

compound	GI50
Cc1ccc(S(=O)(=O)NC(=O)NC(CCCCNC(=N)N)C(=O)O)cc1 (configuration not stated)	> 100 µM
Cc1ccc(S(=O)(=O)N/N=C2\C=C[C@]3(CC2)C(=O)N(C)c2ccccc23)cc1	> 100 µM
Cc1ccccc1N1C(=O)C2C=CC(n3[nH]c(=O)n(Cc4ccccc4)c3=O)CC2C1=O (configuration not stated)	> 100 µM

Give the measured GI50 of C=C(NC(=O)C(=C)NC(=O)c1ccc2c(n1)-c1coc(n1)C(=C)NC(=O)C(=C)NC(=O)c1nc(oc1C)C(=C)NC(=O)C(C(C)(C)O)NC(=O)C(=C)NC(=O)c1coc(n1)/C(=C/C)NC(=O)[C@H]([C@@H](C)O)NC(=O)c1csc-2n1)C(N)=O (some centres not stated) .
> 87.5 µM

And what about the compound CCOC(=O)CC1COc2ccc3c(c21)OCO3 (configuration not stated) ?
> 100 µM

And O=C1CCC(=O)C(C(=O)CCC(=O)Nc2cccc(Cl)c2)C1 (configuration not stated) ?
> 100 µM

What do you have for Oc1cc2c3c(c1)CCCN3CCC2 ?
> 10 µM

Next record, please: O=C1[C@@H]2C[C@@H](O)CN2C(=O)c2ccccc2N1CCCO
> 100 µM

---

System: IGROV-1
method: NCI tumour cell line growth inhibition, 48 h
The source made the active and inactive calls. Cut-off read from the data, not from the text of the source: active = GI50 up to about 1.1 µM and inactive = higher.
Catalogue of compounds with associated GI50

> print(dat)
                                    compound                  val
 1  O=c1cc(N2CCOCC2)[nH]c(=O)n1-c1cccc(Cl)c1  > 100 µM (inactive)
 2  C[C@]12CC[C@H](OC3CCCCO3)CC1=CC[C@@H]1C2CC[C@]2(C)/C(=N/OCCC#N)CCC12 (stereo not given in full)  > 100 µM (inactive)
 3  COC(=O)C(C)Oc1ccc(O)cc1 (stereo not given)  > 100 µM (inactive)
 4  OC1c2ccccc2C(O)C2OC12 (stereo not given)  > 100 µM (inactive)
 5  Cc1cc(C)c2c(c1)CC1(Cc3c(ccc(C)c3C)C1=O)C2=O (stereo not given)  > 100 µM (inactive)
 6  CC(=O)OC1/C=C(\C)C(OC(C)=O)C/C=C(/C)CCC2C(/C=C/C1=O)C2(C)C (stereo not given)  > 100 µM (inactive)
 7               C=CC[N+]12CN3CN(CN(C3)C1)C2   27.4 µM (inactive)
 8  CCCOC1OC(CS(=O)(=O)O)C(O)C(O)C1O (stereo not given)  > 100 µM (inactive)
 9       c1ccc2c(c1)nnn2CNc1ccc(N2CCOCC2)cc1  > 100 µM (inactive)
10  Oc1cc(O)c2c(c1)O[C@H](c1ccc(O)c(O)c1)[C@@H](O)C2 [CIANIDANOL]  > 100 µM (inactive)

// query GI50 value for entry CCOC(=O)C1S/C(=N\c2ccccc2)N=C1C (stereo not given)
> 100 µM (inactive)

Repeat for the following compound: COc1ccc2c(c1)OCCC1=C2SCC2(C)CCN=C12 (stereo not given)
> 100 µM (inactive)

Follow-up item: CC(C)Oc1cccc(N2C(n3ccnc3)=Nc3ccncc3S2(=O)=O)c1
14.6 µM (inactive)

Request: C/C(=N\NS(=O)(=O)c1ccc(C)cc1)c1ccc[n+]([O-])n1
> 100 µM (inactive)

---

System: HCT-116
method: NCI tumour cell line growth inhibition, 48 h
Active and inactive are the calls of the source. Rule as the data show it: active = GI50 up to about 1.1 µM and inactive = higher.
Catalogue of GI50 readings, one per entry.

Examples with answers:
> print(dat)
                                   compound                  val
1  O=C1[C@@H]2C[C@@H](O)CN2C(=O)c2ccccc2N1CCCO  > 100 µM (inactive)
2             Nc1nc(Cl)cc(OCC2(CO)CCCCC2)n1  > 100 µM (inactive)

# input compound: COc1ccc(C(=O)N2CCN(c3ccc4c(c3)OCC(=O)N4)CC2)cc1OC ; wanted: its GI50
> 100 µM (inactive)

For N#CCCCC[N+]12CN3CN(CN(C3)C1)C2 then?
> 100 µM (inactive)

Proceed to CCCc1cc(=O)oc2c3c(c4c(c12)OC(C)(C)CC4)O[C@@H](C)[C@H](C)[C@H]3O
8.89 µM (inactive)

Same again, this time with CC1=NC(=O)C(C)(c2ccccc2)N1CCc1ccccc1 (configuration not stated)
28 µM (inactive)

Next record, please: O=c1[nH]nc(-c2ccc([N+](=O)[O-])cc2)n1/N=C/c1ccc([N+](=O)[O-])cc1
> 100 µM (inactive)

---

Measured GI50 accompanies every entry in the list below.
System: Malme-3M
method: NCI tumour cell line growth inhibition, 48 h
Active and inactive are the calls of the source. Cut-off read from the data, not from the text of the source: active = GI50 up to about 1.1 µM and inactive = higher.

What does the data say about its GI50? Entry: O=C1N=NC(=O)N1c1cc(C(F)(F)F)cc(C(F)(F)F)c1
3.83 µM (inactive)

And for COC(=O)/C1=C/C=C\C[C@@]2(C)CC(c3ccoc3)OC(=O)[C@@H]2CC[C@H]1C (stereo partly specified) ?
> 25 µM (inactive)

Now try C(=C/c1nc2ccccc2o1)/c1ccc2c(c1)OCO2 .
27.3 µM (inactive)

---

Tested on: MDA-MB-435
method: NCI tumour cell line growth inhibition, 48 h
Active and inactive are the calls of the source. Cut-off read from the data, not from the text of the source: active = GI50 up to about 1.1 µM and inactive = higher.
// allowed return values: active, inactive

Reference set, count: 2
compound	discreteLabel
O=[N+]([O-])c1cccnc1NCC1(CO)CC(Cc2ccccc2)C1 (stereo not drawn)	inactive
O=c1cc(N2CCOCC2)[nH]c(=O)n1-c1cccc(Cl)c1	inactive

Field: outcome | Entry: CSc1c(C#N)c(O)n(-c2ccc(C)cc2)c(=O)c1C(C)=O
inactive

Same question, CCCCC[C@H]1CC=CC(=O)O1 this time
inactive

Would you mind doing CC(C)(Oc1ccccc1)C(=O)Sc1c(-c2ccccc2)c(=O)n(-c2ccccc2)c(=S)n1-c1ccccc1 as well?
inactive

Also check N#CCCCC[N+]12CN3CN(CN(C3)C1)C2
inactive

Item: Cn1c(-c2cccc([N+](=O)[O-])c2)[n+](C)c2ccccc21
inactive

Next record, please: CC[C@]12C=CCN3CCC4(c5cc([C@@]6(C(=O)OC)CC7CN(CCc8c6[nH]c6ccccc86)CC6CCCCC67)c(OC)cc5N(C)C4[C@](O)(C(=O)OC)C1OC(C)=O)[C@@H]32 (stereo partly drawn)
active

Same thing, different compound: O/N=C1/CCCCCC1NO (stereo not drawn)
inactive

Param item: CC[C@@]12C=CC(=S)N(CCSc3ccccc3)[C@@H]1c1c(n(S(=O)(=O)c3ccc(OC)cc3)c3ccccc13)CC2
inactive

Now try CNc1ccc2c(c1)[C@@]1(C)c3ccccc3[C@@H](C2)N1C .
inactive

What do you have for Cc1ccc(NC(=O)/C(=N\NC(N)=O)c2c(O)c3ccccc3[nH]c2=O)cc1 ?
inactive

Param item: Cc1cc(-c2nc3ccccc3s2)ccc1NC(=O)[C@@H](N)CCCCN
inactive

---

Tested on: KM-20L2
method: NCI tumour cell line growth inhibition, 48 h
The source made the active and inactive calls. No stated cut-off is given here; in the data, active = GI50 up to about 1.1 µM and inactive = higher.
Items are presented alongside their recorded GI50.

Past entries and their recorded results:
> print(dat)
                                   compound                  val
1  COC(=O)/C(=N/Nc1cccc(Cl)c1)C(C(=O)C(=O)Nc1cccc(Cl)c1C)c1nc2ccccc2nc1C (configuration not stated)     32 µM (inactive)
2  CCC1=CCN(c2ccc(C)cc2)OC1c1ccc(OC)cc1 (configuration not stated)   66.5 µM (inactive)
3  CCC1=C(C(C)=O)[C@@H]2CCCCC(C(=O)OC)[C@@H]2C1=O (some centres not stated)  > 100 µM (inactive)

Which GI50 value belongs to CN(C)/N=C(/c1nc2ccc(Cl)cc2nc1O)C(O)c1ccc(C(O)/C(=N\N(C)C)c2nc3ccc(Cl)cc3nc2O)cc1 (configuration not stated) ?
84.9 µM (inactive)

Now this one: COc1ccc(OC)c(N2CC(N)C2=O)c1 (configuration not stated)
> 100 µM (inactive)

Also check CCOc1ccc(NC(=O)C(=O)CC(=O)c2c(C)[n+]([O-])c3ccccc3[n+]2[O-])cc1
> 100 µM (inactive)

N#Cc1cccnc1Cl , same question.
> 100 µM (inactive)

Please answer likewise for NCCn1ccc(NC(c2ccccc2)(c2ccccc2)c2ccccc2)nc1=O
15.7 µM (inactive)

---

This section presents compounds with their documented GI50 values.
Tested on: MDA-N
method: NCI tumour cell line growth inhibition, 48 h
Active and inactive are the calls of the source. Cut-off read from the data, not from the text of the source: active = GI50 up to about 1.1 µM and inactive = higher.

Example compounds with recorded GI50:
compound	GI50
CCOC(=O)c1csc(NC(=O)CCN2CCCCC2)n1	> 100 µM (inactive)
COc1ccc(/N=N/C(=N/NC(=O)c2cc(Cl)ccc2C(=O)c2ccccc2)c2ccc(N(CCC#N)CCC#N)cc2C)cc1	21.7 µM (inactive)
C=C(NC(=O)C(=C)NC(=O)c1ccc2c(n1)-c1coc(n1)C(=C)NC(=O)C(=C)NC(=O)c1nc(oc1C)C(=C)NC(=O)C(C(C)(C)O)NC(=O)C(=C)NC(=O)c1coc(n1)/C(=C/C)NC(=O)[C@H]([C@@H](C)O)NC(=O)c1csc-2n1)C(N)=O (stereo not given in full)	> 87.5 µM (inactive)
COc1cc(C)cc(C(=O)/C=C/c2ccccc2)c1O	23.7 µM (inactive)

With those in mind, consider the next compound.
For MDA-N, provide GI50 of CN(C)C(=O)Oc1ccc(C(=S)Nc2ccccc2)cc1Br please.
21.7 µM (inactive)

Where these numbers come from: ChEMBL document CHEMBL1201862
